# STUDY TARGET: CaSho1
# ASSAY TEXT: SPOT peptide array binding signal intensity (averaged, normalized) (arbitrary units (background-subtracted, floor 0; scale differs between SH3 domains)); higher = stronger binding of the SH3 domain to the peptide
Use 100 as the dividing line for SPOT peptide array binding signal intensity, with the line itself on the yes side and lower values as no.

Problem: // inclusive: SPOT peptide array binding signal intensity at least 100? input: RRRDFGAPANKRPRR
Solution: yes

Problem: Follow-up entry: SPLGAPPPPPHKDHL
Solution: no

Problem: Follow-up entry: EVTPKVPERPSRRKT
Solution: no

Problem: Follow-up entry: LLLLFVPDSPYDPAI
Solution: yes

Problem: Follow-up entry: PAPPPPPRASRPTPN
Solution: no

Problem: Follow-up entry: APPPPPRRATPEKKP
Solution: no

Problem: Follow-up entry: MPAPPPPPPPPPGAF
Solution: no

Problem: Follow-up entry: KKIRLIFTYPSTVGR
Solution: yes

Problem: Follow-up entry: NAGIRPKFILALNDE
Solution: yes

Problem: Follow-up entry: RKNRAPPQRPRFNRD
Solution: yes

Problem: Follow-up entry: LYEAMPPTLPHRDWK
Solution: yes

Problem: Follow-up entry: ANNQGPPNLPARDKS
Solution: no

Problem: Follow-up entry: VPVAPPPPPASLGQS
Solution: no

Problem: Follow-up entry: TPRLSLPRLPNKHHW
Solution: no

Problem: Follow-up entry: PVLPPPRSPNRPTLS
Solution: no

Problem: Follow-up entry: LEFRAILFIPKRAPF
Solution: yes

Problem: Follow-up entry: FYHRPAPKPPVTKKV
Solution: no

Problem: Follow-up entry: VNFRRIPTGPDSPPT
Solution: no

Problem: Follow-up entry: VATSTSPKLPPRGKQ
Solution: no

Problem: Follow-up entry: NRARYLPQNPDIIAG
Solution: no

Problem: Follow-up entry: ATKSASPTLPTRRSR
Solution: no

Problem: Follow-up entry: FPGKKSPRLPHRNKK
Solution: yes

Problem: Follow-up entry: SRSKPLPLTPNSKYN
Solution: yes

Problem: Follow-up entry: GERSRPLVISILSSA
Solution: yes

Problem: Follow-up entry: TSIEIPKRSPLRFTS
Solution: no

Problem: Follow-up entry: VFQFQMPTTPISTKM
Solution: yes

Problem: Follow-up entry: RTIRKLPLMSLSEYF
Solution: yes

Problem: Follow-up entry: RRRRRPHRIERPLSN
Solution: yes

Problem: Follow-up entry: SHRLWLYAAPKRPKT
Solution: yes

Problem: Follow-up entry: EREKALPPIPFTTTL
Solution: yes
